The measured values listed here are drawn from ChEMBL document CHEMBL3272130.

List of Activity values.
Tested on: Rattus norvegicus
Test: Cardiovascular activity in deoxycorticosterone acetate treated hypertensive CD rat assessed as change in heart rate at 100 mg, ip after 4 hrs relative to control
Assay type: ADME, organism-based
Conditions: in vivo
value_kind: Activity (%)

- COc1c2c(c3c(c1OC)CCN(CC(c1ccccc1)c1ccccc1)C3)CCC2: 8.6
- COc1c2c(c3c(c1OC)CN(CCC(c1ccccc1)c1ccccc1)CC3)CCC2: 0.8
- COc1ccc(C(=O)N2CCc3c(c4c(c(OC)c3OC)CCC4)C2)cc1OC: -1.2
- COc1c2c(c3c(c1OC)CN(CC(c1ccccc1)c1ccccc1)CC3)CCC2: 2.4

---

List of LD50 at 24 h values.
Test: Toxicity in ip dosed Swiss-Webster mouse after 24 hrs
Format: organism-based
Conditions: in vivo
value_kind: LD50 at 24 h (mg/kg)

• Br.COc1ccc(CCN2CCc3c4c(c(OC)c(OC)c3C2)CCC4)cc1OC = 125
• Br.CN1CCc2c(O)c(O)c3c(c2C1)CCC3 = 160
• COc1ccc(CC(=O)N2CCc3c4c(c(OC)c(OC)c3C2)CCC4)cc1OC = 160
• Br.COc1ccc(CN2CCc3c(c4c(c(OC)c3OC)CCC4)C2)cc1OC = 200
• COc1ccc(C(=O)N2CCc3c4c(c(OC)c(OC)c3C2)CCC4)cc1OC = 150
• Br.COc1c2c(c3c(c1OC)CN(C)CC3)CCC2 = 100

---

Tested on: Rattus norvegicus
Assay: Cardiovascular activity in deoxycorticosterone acetate treated hypertensive CD rat assessed as change in heart rate at 20 mg, ip after 24 hrs relative to control
Format: ADME, organism-based
Conditions: in vivo
value_kind: Activity

• COc1ccc(C(=O)N2CCc3c4c(c(OC)c(OC)c3C2)CCC4)cc1OC = 5.7%
• COc1c2c(c3c(c1OC)CN(CC(c1ccccc1)c1ccccc1)CC3)CCC2 = -5%
• COc1ccc(CC(=O)N2CCc3c4c(c(OC)c(OC)c3C2)CCC4)cc1OC = -6.7%
• Br.COc1c2c(c3c(c1OC)CN(C)CC3)CCC2 = 1.5%
• COc1c2c(c3c(c1OC)CN(C(=O)CC(c1ccccc1)c1ccccc1)CC3)CCC2 = -1.8%
• COc1c2c(c3c(c1OC)CNCC3)CCC2 = 7.4%
• Br.CCC(C)CN1CCc2c3c(c(OC)c(OC)c2C1)CCC3 (configuration not stated) = -5.5%
